Data export: pKi values recorded with Brucella suis urease (ure-1 operon) (Brucella suis, UniProt Q8G2P8).
Sequence (Q8G2P8 whole entry, looked up): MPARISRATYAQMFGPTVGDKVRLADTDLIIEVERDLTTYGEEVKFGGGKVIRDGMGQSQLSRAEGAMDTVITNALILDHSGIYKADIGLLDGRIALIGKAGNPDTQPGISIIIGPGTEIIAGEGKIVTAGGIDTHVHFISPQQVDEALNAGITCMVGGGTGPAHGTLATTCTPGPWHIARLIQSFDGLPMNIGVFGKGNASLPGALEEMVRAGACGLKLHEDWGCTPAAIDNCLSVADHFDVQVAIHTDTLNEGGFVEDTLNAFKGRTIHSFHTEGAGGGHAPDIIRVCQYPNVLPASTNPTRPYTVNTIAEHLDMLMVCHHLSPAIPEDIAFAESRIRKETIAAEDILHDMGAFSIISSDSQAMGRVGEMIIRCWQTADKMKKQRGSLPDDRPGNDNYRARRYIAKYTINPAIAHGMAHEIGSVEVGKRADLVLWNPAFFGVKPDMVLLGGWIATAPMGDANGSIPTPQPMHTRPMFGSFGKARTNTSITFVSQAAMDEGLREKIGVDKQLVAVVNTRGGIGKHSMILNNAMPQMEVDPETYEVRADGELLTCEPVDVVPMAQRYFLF
The read-out pKi is expressed as -log10 of concentration in moles per litre.

Known results for molecules:
NC(=O)NO [hydroxyurea]    2.98
NC(N)=S    1.58

Would you kindly look at the next entry?
Query: Returns the measured pKi for the input molecule. Input: CC(=O)NO [acetohydroxamic acid]
Response: 3.11
